- Target under test: PSG G322A G335A (PSD-95)
- Measurement notes: FP displacement (competition) of FITC-15 AA CRIPT by library peptide, IC50 and Ki
- Test settings: read-out: IC50 (µM), PSG G322A G335A; FP displacement of FITC-15 AA CRIPT probe by PSD library peptide; protein PSG G322A G335A
Experimental endpoint: IC50 (µM)
Numbers only here, please. The scale is µM.

Exam item: Report its IC50 with PSG G322A G335A (PSD-95) as the test system: CC[C@H](C)[C@H](NC(=O)[C@H](CC(N)=O)NC(=O)CNC(=O)CNC(=O)[C@H](CO)NC(=O)[C@H](Cc1ccc(O)cc1)NC(=O)[C@H](CCC(=O)O)NC(=O)[C@@H]1CCCN1C(=O)[C@H](Cc1ccc(O)cc1)NC(C)=O)C(=O)N[C@H](C(=O)N[C@@H](CCCNC(=N)N)C(=O)N[C@H](C(=O)N[C@@H](CO)C(=O)N[C@@H](C)C(=O)N[C@@H](CC(C)C)C(=O)O)C(C)C)C(C)C [KCND2]
Marked response: 343

Exam item: Report its IC50 with PSG G322A G335A (PSD-95) as the test system: CC(=O)N[C@@H](Cc1ccc(O)cc1)C(=O)N[C@@H](Cc1c[nH]cn1)C(=O)N1CCC[C@H]1C(=O)N[C@@H](Cc1c[nH]cn1)C(=O)N1CCC[C@H]1C(=O)N[C@@H](Cc1c[nH]cn1)C(=O)N1CCC[C@H]1C(=O)N[C@@H](Cc1c[nH]cn1)C(=O)N[C@@H](CO)C(=O)N[C@@H](Cc1c[nH]cn1)C(=O)N[C@@H](CO)C(=O)N[C@H](C(=O)N[C@H](C(=O)N[C@@H](CCCNC(=N)N)C(=O)N[C@H](C(=O)O)C(C)C)[C@@H](C)O)[C@@H](C)O [NLGN1]
Marked response: 22

Exam item: Report its IC50 with PSG G322A G335A (PSD-95) as the test system: CC(=O)N[C@@H](Cc1ccc(O)cc1)C(=O)N[C@@H](CCCCN)C(=O)N[C@@H](CCCCN)C(=O)N[C@H](C(=O)N[C@@H](CC(C)C)C(=O)N[C@@H](CC(=O)O)C(=O)N[C@H](C(=O)N[C@@H](CCCCN)C(=O)N[C@@H](CC(N)=O)C(=O)N[C@@H](Cc1ccc(O)cc1)C(=O)N[C@@H](CCCCN)C(=O)N[C@@H](CCC(N)=O)C(=O)N[C@H](C(=O)N[C@@H](CO)C(=O)N[C@H](C(=O)O)C(C)C)[C@@H](C)O)[C@@H](C)O)C(C)C [CRIPT]
Marked response: 0.868

* * *

- Target under test: PSG G335A (PSD-95)
- Measurement notes: FP displacement (competition) of FITC-15 AA CRIPT by library peptide, IC50 and Ki
- Test settings: read-out: IC50 (µM), PSG G335A; FP displacement of FITC-15 AA CRIPT probe by acetylated PSD library peptide
Experimental endpoint: IC50 (µM)
Numbers only here, please. The scale is µM.

Exam item: Read the entry CC(=O)N[C@@H](Cc1ccc(O)cc1)C(=O)N[C@@H](CC(N)=O)C(=O)N[C@@H](CO)C(=O)N[C@H](C(=O)N[C@@H](CC(N)=O)C(=O)N[C@@H](CC(C)C)C(=O)N1CCC[C@H]1C(=O)N[C@@H](Cc1c[nH]cn1)C(=O)NCC(=O)N[C@@H](Cc1c[nH]cn1)C(=O)N[C@@H](CO)C(=O)N[C@H](C(=O)N[C@H](C(=O)N[C@@H](CCCNC(=N)N)C(=O)N[C@H](C(=O)O)C(C)C)[C@@H](C)O)[C@@H](C)O)[C@@H](C)O [NLGNX] and write its reported IC50.
Marked response: 39

Exam item: Read the entry CC(=O)N[C@@H](Cc1ccc(O)cc1)C(=O)N[C@@H](C)C(=O)N1CCC[C@H]1C(=O)N[C@@H](C)C(=O)N[C@H](C(=O)N[C@@H](CO)C(=O)N1CCC[C@H]1C(=O)N1CCC[C@H]1C(=O)N[C@@H](CCC(=O)O)C(=O)N[C@@H](CCCNC(=N)N)C(=O)N[C@@H](C)C(=O)N[C@@H](CC(C)C)C(=O)N[C@@H](CO)C(=O)N[C@@H](CCCCN)C(=O)N[C@@H](CC(C)C)C(=O)O)[C@@H](C)O [TUTLB] and write its reported IC50.
Marked response: 721

Exam item: Read the entry CC(=O)N[C@@H](Cc1ccc(O)cc1)C(=O)N[C@@H](CC(C)C)C(=O)N[C@@H](Cc1c[nH]cn1)C(=O)NCC(=O)N[C@@H](Cc1c[nH]cn1)C(=O)N[C@@H](CCCNC(=N)N)C(=O)N[C@@H](Cc1ccc(O)cc1)C(=O)N[C@@H](CO)C(=O)N[C@@H](CO)C(=O)NCC(=O)N[C@@H](CO)C(=O)N[C@@H](CCCNC(=N)N)C(=O)N[C@@H](CO)C(=O)N[C@@H](CC(C)C)C(=O)N[C@H](C(=O)O)C(C)C [IQEC3] and write its reported IC50.
Marked response: 673

* * *

- Target under test: PSG G322A (PSD-95)
- Measurement notes: FP displacement (competition) of FITC-15 AA CRIPT by library peptide, IC50 and Ki
- Test settings: read-out: IC50 (µM), PSG G322A; FP displacement of FITC-15 AA CRIPT probe by PSD library peptide; protein PSG G322A
Some molecules, each annotated with its measured IC50.
Numbers only here, please. The scale is µM.

Solved entries:
Exam item: Report its IC50 with PSG G322A (PSD-95) as the test system: CC(=O)N[C@@H](Cc1ccc(O)cc1)C(=O)N[C@@H](CCC(=O)O)C(=O)N[C@@H](CCC(=O)O)C(=O)N[C@@H](CCC(=O)O)C(=O)N[C@@H](CC(C)C)C(=O)N[C@@H](CCC(N)=O)C(=O)N[C@@H](CC(=O)O)C(=O)N[C@@H](CO)C(=O)N[C@@H](CCCNC(=N)N)C(=O)N[C@H](C(=O)N[C@@H](Cc1ccc(O)cc1)C(=O)N[C@H](C(=O)N[C@@H](CO)C(=O)N[C@@H](CO)C(=O)N[C@@H](CC(C)C)C(=O)O)C(C)C)C(C)C
Marked response: 99

Exam item: Report its IC50 with PSG G322A (PSD-95) as the test system: CC(=O)N[C@@H](Cc1ccc(O)cc1)C(=O)N[C@@H](CC(=O)O)C(=O)N[C@@H](CCCCN)C(=O)N[C@@H](CCCNC(=N)N)C(=O)N[C@@H](CC(=O)O)C(=O)N[C@@H](CO)C(=O)N[C@@H](CCC(=O)O)C(=O)N[C@@H](CCC(=O)O)C(=O)N[C@@H](CCC(=O)O)C(=O)N[C@@H](CO)C(=O)N[C@@H](CCC(=O)O)C(=O)N[C@@H](CO)C(=O)N[C@H](C(=O)N[C@@H](C)C(=O)N[C@@H](CC(C)C)C(=O)O)[C@@H](C)O
Marked response: 1210

Exam item: Report its IC50 with PSG G322A (PSD-95) as the test system: CC(=O)N[C@@H](Cc1ccc(O)cc1)C(=O)N1CCC[C@H]1C(=O)N[C@@H](CCC(N)=O)C(=O)N[C@@H](Cc1c[nH]cn1)C(=O)N[C@@H](CC(C)C)C(=O)N[C@@H](CCCNC(=N)N)C(=O)N[C@H](C(=O)N[C@@H](C)C(=O)N[C@@H](CO)C(=O)N[C@@H](CCCCN)C(=O)N[C@@H](CC(N)=O)C(=O)N[C@@H](CCC(=O)O)C(=O)N[C@H](C(=O)N[C@H](C(=O)N[C@H](C(=O)O)C(C)C)[C@@H](C)O)C(C)C)[C@@H](C)O
Marked response: 695

Exam item: Report its IC50 with PSG G322A (PSD-95) as the test system: CC[C@H](C)[C@H](NC(=O)[C@H](CCC(=O)O)NC(=O)[C@@H](NC(=O)[C@H](CO)NC(=O)[C@H](CCC(=O)O)NC(=O)[C@@H](NC(=O)[C@H](CCCNC(=N)N)NC(=O)[C@H](CCC(=O)O)NC(=O)[C@H](CC(C)C)NC(=O)[C@H](CCCNC(=N)N)NC(=O)[C@H](CO)NC(=O)[C@@H]1CCCN1C(=O)[C@@H](NC(=O)[C@H](Cc1c[nH]c2ccccc12)NC(=O)[C@H](Cc1ccc(O)cc1)NC(C)=O)[C@@H](C)O)[C@@H](C)CC)[C@@H](C)O)C(=O)O
Marked response: 462

Would you kindly look at the next entry?
Exam item: Report its IC50 with PSG G322A (PSD-95) as the test system: CC(=O)N[C@@H](Cc1ccc(O)cc1)C(=O)N[C@@H](CCCCN)C(=O)N[C@@H](CCCCN)C(=O)N[C@H](C(=O)N[C@@H](CC(C)C)C(=O)N[C@@H](CC(=O)O)C(=O)N[C@H](C(=O)N[C@@H](CCCCN)C(=O)N[C@@H](CC(N)=O)C(=O)N[C@@H](Cc1ccc(O)cc1)C(=O)N[C@@H](CCCCN)C(=O)N[C@@H](CCC(N)=O)C(=O)N[C@H](C(=O)N[C@@H](CO)C(=O)N[C@H](C(=O)O)C(C)C)[C@@H](C)O)[C@@H](C)O)C(C)C
Marked response: 1.49

Entry source: paper PMC9490041
